Measured values drawn from PubChem BioAssay (NCI) for this set.

Listed here are compounds together with their documented TGI.
# Tested on: HCT-116 colon
# test.description: NCI tumour cell line growth inhibition, 48 h

compound="CC(C)(C)OC(=O)NCCCCC(NC(=O)c1ccccc1)C(N)=O (stereo not given)" tested_target="HCT-116 colon" value_observed="> 100 µM"
compound="CN(C)/N=C1\\CC(c2ccccc2)C(C#N)(C#N)C1(C#N)C#N (stereo not given)" tested_target="HCT-116 colon" value_observed="39.8 µM"
compound="CN1C(=O)C2(c3ccccc31)N(c1ccc(Cl)cc1)C(=O)C2(c1ccccc1)c1ccccc1 (stereo not given)" tested_target="HCT-116 colon" value_observed="> 100 µM"
compound="CC1(C)CC(=O)C2=C(C1)OC1=C(CC(C)(C)CC1=O)C2c1ccccc1[N+](=O)[O-] (stereo not given)" tested_target="HCT-116 colon" value_observed="> 100 µM"
compound="CC1CC(=O)N(N(C)C)C(C#N)(C#N)C1(C#N)C#N (stereo not given)" tested_target="HCT-116 colon" value_observed="51.7 µM"
compound="CC(=O)[CH-]C(=O)c1ccccc1.CC(=O)[CH-]C(=O)c1ccccc1.C[C@]12CCC(=O)C=C1CC[C@@H]1C2CC[C@@]2(C)C1CC[C@]2(C)[O-].C[C@]12CCC(=O)C=C1CC[C@@H]1C2CC[C@@]2(C)C1CC[C@]2(C)[O-].Cl.[Ti+4] (stereo not given in full)" tested_target="HCT-116 colon" value_observed="> 100 µM"

Let me know recorded TGI for O=S(=O)(c1cnccc1N1CCN(CCO)CC1)N1CCCC1 , thanks.
> 100 µM

Quick one: give measured TGI for O=C(OCC(Cl)(Cl)Cl)O[C@@H]1CCCC1(c1ccccc1)c1ccccc1
> 100 µM

Read off the recorded TGI for N=c1c2c(=N)n3c(nc2nc2n1-c1ccccc1Sc1ccccc1-2)sc1cc(Cl)ccc13
> 100 µM

Assign TGI to the following record: O=P(O)(O)C1(P(=O)(O)O)CC1
> 100 µM

Provide measured TGI value, entry: CC(=O)c1c(C)[nH]c(-c2nc3ccc(N4CCN(C)CC4)cc3[nH]2)c1-c1ccccc1
17.2 µM

For the compound C[Si](C)(c1ccccc1)[C@H]1CCCC=C1CCNC1c2ccccc2CCc2ccccc21 , give its reported TGI.
> 100 µM

Give reported TGI value for CCCCCCC[CH2][Sn]1([CH2]CCCCCCC)[O]C(=O)c2cccnc2[O]1
> 100 µM

Provide one value: measured TGI of COc1ccc2oc(=O)c(-c3csc(C)n3)cc2c1
> 100 µM
